- systemName: human GLP-1R (human, UniProt P43220 24-463)
- testMethodNotes: cell-based or functional assay
Bridges are numbered along the chain shown (N, C = ends). Where no end group is shown, it is not given here. [ ]: non-standard residue; d: D form. staple K20 = not defined here; staple K4 = not defined here; staple K6 = not defined here; staple K7 = not defined here; staple K8 = not defined here; staple K9 = not defined here; Aib = CC(C)(N)C(=O)O
metric: EC50 cAMP 0% FBS (nM)
State the answer as a number, implicitly in nM.

Some entries whose results are on file:
INSERT INTO assay_data (binder, metric, readingunit, recordedresult) VALUES
  ('YXEGTFTSDYSIYLDKKAAXEFVKWLLAGGPSSGAPPPS (staple K5 on Lys 17, 24; Aib 2, 20) [Conjugate 139]', 'EC50 cAMP 0% FBS', 'nM', 0.061),
  ('Y[Aib]EGTFTSDYSIYLDKKAA[Aib]EFVKWLLAGGPSSGAPPPS (linker 17-24 via staple K9; reading uncertain) [Conjugate 143]', 'EC50 cAMP 0% FBS', 'nM', 0.068),
  ('Y[Aib]EGTFTSDYSIYLDKKAA[Aib]EFVKWLLAGGPSSGAPPPS (linker 17-24 via staple K8; reading uncertain) [Conjugate 148]', 'EC50 cAMP 0% FBS', 'nM', 0.46),
  ('Y[Aib]EGTFTSDYSIYKDKQAA[Aib]KFVNWLLAGGPSSGAPPPS (linker 14-21 via staple K20; reading uncertain) [Conjugate 153]', 'EC50 cAMP 0% FBS', 'nM', 0.05),
  ('Y[Aib]EGTFTSDYSIYKDKQAA[Aib]KFKNWLKAGGPSSGAPPPS (linker 23-27 via staple K6; reading uncertain) [Conjugate 155]', 'EC50 cAMP 0% FBS', 'nM', 4.08);

Q: // Input: Y[Aib]EGTFTSDYSIYLDKKAA[Aib]EFVKWLLAGGPSSGAPPPS (linker 17-24 via staple K6; reading uncertain) [Conjugate 147] . Output its EC50 cAMP 0% FBS only.
Ans: 0.07

Q: // Input: Y[Aib]EGTFTSDYSIYKDKQAA[Aib]KFVNWLLAGGPSSGAPPPS (linker 14-21 via staple K7; reading uncertain) [Conjugate 154] . Output its EC50 cAMP 0% FBS only.
Ans: 0.03

Q: // Input: Y[Aib]EGTFTSDYSIYLDKKAQ[Aib]AFVKWLIAQGPSSGAPPPS (linker 17-24 via staple K4; reading uncertain) [Conjugate 146] . Output its EC50 cAMP 0% FBS only.
Ans: 0.11

Q: // Input: Y[Aib]EGTFTSDYSIYKDKQAA[Aib]KFKNWLKAGGPSSGAPPPS (linker 23-27 via staple K4; not fully specified; reading uncertain) [Conjugate 145] . Output its EC50 cAMP 0% FBS only.
Ans: 61.4
